Assay: yeast display, Sf9 membrane polyspecificity reagent, FACS + sequencing; frameworks hold sequencing errors
quantity: polyreactivity (PSR sort gate)

>  <sequenceEntry>
QVQLVESGGGLVQAGGSLRLSCAASGSIFRLNTKGGYRQAPGKERELVAAISNGGRTYYADSVTGRFTISRDNAKNTVYLQMNSLKPEDTAVYYCNVRYGRSKIYGYWGQGTQVTVSS

>  <quantity>
polyreactivity (PSR sort gate)

>  <result>
high polyreactivity

$$$$
>  <sequenceEntry>
QVQLVESVGGLVQAGGSLRLSCAASGFIFKRYAMGWYRQAPGKERELVAAITGSGGSTYYADSVKGRFTISRDNAKNTVYLQMNSLKPEDTAVYYCARGNGGSLDYWGQGTQVTVSS

>  <quantity>
polyreactivity (PSR sort gate)

>  <result>
high polyreactivity

$$$$

* * *

Test: yeast display, Sf9 membrane polyspecificity reagent, FACS + sequencing; frameworks hold sequencing errors

>  <sequenceEntry>
QVQLVESGGGLVQAGGSLRLSCPASGLIFLHNAMGWYRQAPGKERELVATISLSGGSTYADSVKGRFTISRDNAKNTVYLQLYSLKPEDTAVYYCAAGGQYYIIRYDYWGQGTQVTVSS

>  <polyreactivity (PSR sort gate)>
low polyreactivity

$$$$
>  <sequenceEntry>
QVQLVESGGCLVQAGGSLRLSCAASGRTFYPYAMGWYRQAPGQDRELVAAIRSSGGTTYYADSVKGRFTISRDNAKNTVYLQMNSLKREDTAVYYCAAFVDRQGGYYWGQGTQVTVSS

>  <polyreactivity (PSR sort gate)>
high polyreactivity

$$$$
>  <sequenceEntry>
QVQLEESGGGLVQAGGSLRLSCPASGSTFIVNVMGWYRQAPGKERELVAAINSGGSTDYADSVKGRFTISRDNAKNTVYLQMNSLKPEDTAVYYCNAYHIVIYDYWGQGTQVTVSS

>  <polyreactivity (PSR sort gate)>
low polyreactivity

$$$$
>  <sequenceEntry>
QDQLVESGGGLVQAGGSLRLSCAASGSTSYRYSMGWYRQAPGKEREFVAAISWSGGSTYYADSVKGRFTISRDTAKNTVYLQMNSLKPEDTAVYYCAAVSRRGSARFDYWGQGTQVTVSS

>  <polyreactivity (PSR sort gate)>
high polyreactivity

$$$$
>  <sequenceEntry>
QVQLVESGGGLVQAGGSLRLSCAASGRIFGTNAMGWYRQAPGKERELVAAISRGGNTYYADSVKGRFTISRDNAKNTVYLQMNSLKPEDTAVYYCAARPGSGRSYTSDYWGQGTQVTVSS

>  <polyreactivity (PSR sort gate)>
high polyreactivity

$$$$
>  <sequenceEntry>
QVQLVESGGGLVQAGGSLRLSCAASGIIFYYYAKGWYRQSPGKERELVAAISSSGGRTRYADSVKGRFTISRDNAKNTVFLQMNSLKPEDSAVYYCAAEFIRGYGESYDYWGQGTQVTVSS

>  <polyreactivity (PSR sort gate)>
low polyreactivity

$$$$
>  <sequenceEntry>
QVQLVESGGGLVQAGGSLRLSCAASGRIFDYYTMGWYRQAPGKERELVAAISVRGGSTYYADSVKGRFTNSRDNAKNTVYLQMNSLKPEDTAVYYCAARSWRHRTYYYWGQGTQVTVSS

>  <polyreactivity (PSR sort gate)>
high polyreactivity

$$$$
>  <sequenceEntry>
QVQLVESGGGLVQAGGSLRLSCAASGLIFSPYAMGWYRQAPGKERELVATISVSGGDTYYADSVKGRFTISRDNAKNTVYLQMNSLIPDDTAVYYCAADSFYRYYWGQGTHVTVSS

>  <polyreactivity (PSR sort gate)>
high polyreactivity

$$$$
>  <sequenceEntry>
QVQLVESGGGLVQAGGSLRLSCADSGSTFPGYTMGWYRQAPGKERELVAAIDGSAGDTYYADSVKGRVTISRDNAKNTVYLQMNSLKPEDTEVYYCAADGPYDYSPWLMYYWGQGTQVTVSS

>  <polyreactivity (PSR sort gate)>
low polyreactivity

$$$$
>  <sequenceEntry>
QVQLVESGGGLVQAGGSLRLSCAASGITFDSYAMGWYRQSPGKEREWVDAISYSGGSTYYADSVKGRFTISRDNAKNTVNLQMNRLKPEDTAVYYFAAASDEDYDYWGQGTQVTVSS

>  <polyreactivity (PSR sort gate)>
low polyreactivity

$$$$
>  <sequenceEntry>
QVQLVESGGGLVQAGGSLRLSCAASGFIFWRNAMGWYRQAPGKEREFVARISSSGGSTYYADSVKGRFTISRDNAKNTVYLQMNSLKPEDTAVYYCNADVWYRYGYFRYDYWGQGTQVTVSS

>  <polyreactivity (PSR sort gate)>
high polyreactivity

$$$$

* * *

Assay: yeast display, Sf9 membrane polyspecificity reagent, FACS + sequencing; frameworks hold sequencing errors

>  <sequenceEntry>
QVHLVESGGGLVQAGGSLRLSCAASGSTFEQYAMGWYIQAPGKERELVAAISGSGTRTYYADSVKGRFTISRDNAKNTVYLQMNSLKPEDTAVYSCRTGSGEYDYWGQGTQVTVSS

>  <polyreactivity (PSR sort gate)>
high polyreactivity

$$$$
>  <sequenceEntry>
QVQLVESGGGLVQAGGSLRLSCAASGFIFLYYAMGWYRQAPGKERELVAAISNGGSTYYADSVKGRFTISRDNAKNTVYLQMNSLKPEDTAVYYCAARYGYRYTLKYGYWGQGTQVTVSS

>  <polyreactivity (PSR sort gate)>
high polyreactivity

$$$$
>  <sequenceEntry>
QVQLVESGGGLVQAGGSLRLSCAASGITFFWNAMGWYRTAPGKERELVAAISSGAGTTYADSVKGRFTISRDNAKNTVYLQMNSLKPEDTAVYYCAARRYRYAYGPYNYWGQGTQVTVSS

>  <polyreactivity (PSR sort gate)>
low polyreactivity

$$$$
>  <sequenceEntry>
QVQLVETGGGLVQAGGSLRLSCAASGSTFTRYGMGWYRQAPGKERELVADITTSGSSTYYADSVKGRFTISRDNAKNTVYLQMNSLKPEDTAVYYCAADWSSWGFDYWGQGTQVTVSS

>  <polyreactivity (PSR sort gate)>
low polyreactivity

$$$$
>  <sequenceEntry>
QVQLVESGGGLVQAGGSLRLSCAASGSTFFRYTMGWYRQAPGKERELVAAITSGGGTDYADSVKGRFTISRDNGKNTVYLQMNSLKPDDTAVYYCAVILSWRDYYLYWRGSWRDDYWGQGTQVSVSS

>  <polyreactivity (PSR sort gate)>
low polyreactivity

$$$$
>  <sequenceEntry>
QVQLVESGGGLVQAGGSLRLSCAASGYIFGSYAMGWYRQAPGKERELVASITRVDSTNYADSVKGRFTISRDNAKNTVYLQMNSLKAEDTAVYYCAADITTPAYATYDYWGQGTQVTVSS

>  <polyreactivity (PSR sort gate)>
low polyreactivity

$$$$
>  <sequenceEntry>
QVQLVESGRGLVQAGGSLRLSCAASGSNFSVYAMGWYRKAPGKERELVAGITRGGSTYADSVKGRFTISRDNAKNTVYLQMNCLKPEDTAVYYFNAVWSNFRLGYDYWGQGTQVTVSS

>  <polyreactivity (PSR sort gate)>
high polyreactivity

$$$$
>  <sequenceEntry>
QVQIVESGGGLVQAGGSLRLSCAASGSIFPHYAMGWYRQAPGKERELVAAISRGGSTNYADSVKGRFTISRDNAKNTVYLQMNSLKPEDTAVYYCNALRYYSRFLYAVAYRYDYWGQGTQVTVSS

>  <polyreactivity (PSR sort gate)>
high polyreactivity

$$$$
>  <sequenceEntry>
QVQLVESGGGLVQAGGSLRLSCAASGSTFVGNAMGWYRQAPVKERELVATISNSGGHTFYADSVKGRFTISRDNAKNTVYLQMNSLKPEDTAVYYCAASTSGAIRRDGYWGQGTQVTVSS

>  <polyreactivity (PSR sort gate)>
low polyreactivity

$$$$
>  <sequenceEntry>
QVQHVESGGGLVQAGGSLRLSCAASGRTFSRYAMGWYRQAPGKERELVAAISSRGGSTYYADSVKGRFTISRDYAKNTVYLQMNSLKPEDTAVYYCNADSKVDQYGYDYWGQGTQVTVSS

>  <polyreactivity (PSR sort gate)>
high polyreactivity

$$$$
>  <sequenceEntry>
QVHLVESGGGLVQAGGSLRLSCAASGFTFVSYAMGWYRQAPGKESELVAAISWSSARTYYADSVKGRFTISRHNAKNTVYLQRNSLKPEDTAVYYCNAVRGFSSSRGGYNYWGQGTQVTVSS

>  <polyreactivity (PSR sort gate)>
high polyreactivity

$$$$
>  <sequenceEntry>
QVQLVESGGGLVQAGGSLRLSCAASGRIFRPYAMGWYRQAPGKERELVARINGSGGSTYYADSVKGRFTISRDTAKNTVYFQMNSLKPEDTAVYYCNVRRIIRYLGYTHTKISWLDYWGQGTQVTVSS

>  <polyreactivity (PSR sort gate)>
high polyreactivity

$$$$
>  <sequenceEntry>
QVQLVDSGGGLVQAGASLRLSCAASGSTLSYYTMGWYRQAPGKERELVAAISWRGGSTYYADSVKGRFTISRDNAKNTVYLQMNSLKPEDTAVYYCATAIRGSPDSSLYYYWGQGTQVTLSS

>  <polyreactivity (PSR sort gate)>
high polyreactivity

$$$$
>  <sequenceEntry>
QVQLVESGGGLVQAGGSLRLSCAASGFIFLPYAMGWYRQAPGKERELVAAITRGGRTYYADSVKGRFTISRDNAKNTVYLQMNSLKPEDTAVYYCAATTYLVWGYNYWGQGTQVTVSS

>  <polyreactivity (PSR sort gate)>
low polyreactivity

$$$$
>  <sequenceEntry>
QVQLVESGAGLVQAGGSLRLSCASSGTIFWGYAMGWYRQAPGKERELVAAITDSGGRTYYADSVKGRFTISRDNAKNTVYLQMNCLKPEDTAVYYCAADYYSQYYYYAVPDRDYWGQGTQVTVSS

>  <polyreactivity (PSR sort gate)>
low polyreactivity

$$$$
>  <sequenceEntry>
QVQLVESGGGLVQAGGSLRLSCAASGSILGPYAMGWYRQAPGKERELVAAISQSGARTYYADSVKGRFTISRDNAKNTVYLQMNSLKPEDTAVYYCAAQSRKGGWSAYYYWGQGTQVTVSS

>  <polyreactivity (PSR sort gate)>
high polyreactivity

$$$$
>  <sequenceEntry>
QVQLEESGGGLVQAGGSLRLSCAASGSILLGYDMGWYRTAPGKERELVASIDTNGGSPYYADSVKGRFTISRDNAKNTVYLQSNSLKPEDTAVYYCNADPSFVGGTYDYWGQGTQVTVSS

>  <polyreactivity (PSR sort gate)>
low polyreactivity

$$$$
>  <sequenceEntry>
QVQLVESGGGLVQAGGSLRLSCAASGSIFGRNAMGWYRQAPGKERELVAVISKRSGNTYYADSVKGRFTISRDNAKNTVYLQMNSLKPEDTAVYYCNAVDQKLLRYDYGGQGTQVTVSS

>  <polyreactivity (PSR sort gate)>
high polyreactivity

$$$$
>  <sequenceEntry>
QVQLVESGVGLVHAGGSLRLSCAASGFIFVRYSIGWYRQAPGKEREFVASISWSGGSTYYADSVKGRFTISRDNAKNTVYLQMNSLKPEDTAVYYCAAYVRKDRSRGLYGYWGQGTQVTVSS

>  <polyreactivity (PSR sort gate)>
high polyreactivity

$$$$
>  <sequenceEntry>
QVQLVESGGGLVQAGGSLRLSCAASGFNFVSYAMGWYRKAPGKERELVAVIDNSDGDTYYADSVKGRFTISRDNAKNTVYLQMNSLKPEDTAVYYCARDVSARGYLPFDYWGQGTQVTVSS

>  <polyreactivity (PSR sort gate)>
low polyreactivity

$$$$
>  <sequenceEntry>
QVQLVESGGGLVQAGGSLRLSCAASGIIFRYYAMGWYRQAPGKERELVAVITGRGGGTYYADSVKGRFTISRDNAKNTVYLQMNSLKPEDTAVYYCAKDFTGHYPKGFDYWGQGTQVTVSS

>  <polyreactivity (PSR sort gate)>
low polyreactivity

$$$$
